For each record, write down the corresponding pest or weed control at 240 g/ha.
# Tested on: weeds
# Test details: Activity test of the compositions, soil sealing treatment
# Format: in vivo
# Condition info: Lolium multiflorum; soil (S); B 16 g a.i./mu; read-out: Control effect (%) of B applied alone (B)
Numbers only; they are read as %.

Ask | Could you tell me which pest or weed control at 240 g/ha is on file for CCCOCCN(C(=O)CCl)c1c(CC)cccc1CC [pretilachlor] ?
Reply | 50.9

Ask | Could you tell me which pest or weed control at 240 g/ha is on file for CCCCOCN(C(=O)CCl)c1c(CC)cccc1CC [butachlor] ?
Reply | 28.8

Ask | Could you tell me which pest or weed control at 240 g/ha is on file for CCC(CC)Nc1c([N+](=O)[O-])cc(C)c(C)c1[N+](=O)[O-] [pendimethalin] ?
Reply | 23.6

Ask | Could you tell me which pest or weed control at 240 g/ha is on file for CN(C(=O)COc1nc2ccccc2s1)c1ccccc1 [mefenacet] ?
Reply | 18.5

Reference for the values: patent US20240327359A1
